- target or test system: Glycylpeptide N-tetradecanoyltransferase 1 (Homo sapiens)
- Sequence (P30419 whole entry): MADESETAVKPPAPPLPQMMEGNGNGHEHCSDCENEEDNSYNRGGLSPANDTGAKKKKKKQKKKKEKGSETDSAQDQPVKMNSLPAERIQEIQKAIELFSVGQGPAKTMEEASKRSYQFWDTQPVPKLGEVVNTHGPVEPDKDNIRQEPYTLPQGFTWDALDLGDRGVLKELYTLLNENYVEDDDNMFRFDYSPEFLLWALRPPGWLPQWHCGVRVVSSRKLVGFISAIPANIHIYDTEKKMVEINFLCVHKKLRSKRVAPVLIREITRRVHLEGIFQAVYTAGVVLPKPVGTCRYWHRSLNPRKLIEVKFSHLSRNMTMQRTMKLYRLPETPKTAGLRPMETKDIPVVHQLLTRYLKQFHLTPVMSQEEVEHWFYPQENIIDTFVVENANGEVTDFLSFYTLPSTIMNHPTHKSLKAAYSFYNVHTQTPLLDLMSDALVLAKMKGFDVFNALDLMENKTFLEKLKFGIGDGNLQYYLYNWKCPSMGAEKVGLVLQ
- assay text: Inhibition of human NMT
pIC50 values by entry
Entry type: numeric. Quantity: pIC50, the -log10 of concentration in molar units.

Cc1cc(CN2C(=O)COc3cc(CCCOC[C@@H]4CCCN4C)ccc32)no1: 4.62

Here is the next item to consider.
Recorded pIC50 for Cc1cc(CN2C(=O)COc3c(CCCCC4CCCN(C)CC4)cccc32)no1 (configuration not stated) on Glycylpeptide N-tetradecanoyltransferase 1 (Homo sapiens) was 7.00

* * *

Sequence of the target: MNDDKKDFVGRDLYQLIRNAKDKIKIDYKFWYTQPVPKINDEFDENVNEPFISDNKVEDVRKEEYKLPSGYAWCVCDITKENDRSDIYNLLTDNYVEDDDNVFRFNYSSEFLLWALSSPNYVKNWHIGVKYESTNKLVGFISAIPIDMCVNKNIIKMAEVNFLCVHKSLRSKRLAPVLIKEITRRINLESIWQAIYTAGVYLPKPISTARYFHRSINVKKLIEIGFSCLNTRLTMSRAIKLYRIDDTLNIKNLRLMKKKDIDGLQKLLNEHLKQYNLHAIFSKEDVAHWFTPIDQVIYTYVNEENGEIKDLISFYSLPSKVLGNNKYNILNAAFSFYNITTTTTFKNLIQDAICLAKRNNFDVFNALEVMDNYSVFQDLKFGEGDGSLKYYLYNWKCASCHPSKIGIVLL
value type: pKi
Entry type: numeric. Quantity: pKi, the -log10 of concentration in molar units.

Lab note: Cc1nn(C)c(C)c1Cc1nnc(-c2sc3ccccc3c2NC2CCNCC2)o1 gave pKi of 8.10

* * *

- target or test system: Glycylpeptide N-tetradecanoyltransferase 1 (Homo sapiens, UniProt P30419)
- assay text: Inhibition of recombinant human NMT
value type: IC50 (nM)
Give your result in nM as a bare value.

Lab note: NCCCCCCCCCC(=O)N[C@@H](CO)C(=O)N[C@@H](CCCCN)C(=O)NCCC1CCCCC1 gave IC50 of 60

* * *

- target or test system: Glycylpeptide N-tetradecanoyltransferase (Plasmodium falciparum, UniProt Q9U419)
- assay text: Inhibition of recombinant his tagged Plasmodium falciparum NMT expressed in Escherichia coli
value type: pIC50
Entry type: numeric. Quantity: pIC50, the -log10 of concentration in molar units.

Lab note: Cc1cc(Nc2ccc([N+](=O)[O-])cc2O)nc2ccccc12 gave pIC50 of 5.85

* * *

- Test system: Leishmania donovani
- assay text: Antileishmanial activity against Leishmania donovani amastigotes
- Format: functional, organism-based
EC50 values by entry
Give your result in µM as a bare value.

Cc1nn(C)c(C)c1NS(=O)(=O)c1c(Cl)cc(-c2ccnc(N3CCNCC3)c2)cc1Cl: 7

Lab note: Cc1nn(C)c(C)c1NS(=O)(=O)c1c(Cl)cc(-c2ccnc(N3CCN(C)CC3)c2)cc1Cl gave EC50 of 0.15

* * *

pIC50 values by entry
- assay text: Inhibition of Trypanosoma brucei NMT
Entry type: numeric. Quantity: pIC50, the -log10 of concentration in molar units.

Solved cases (3 shown):
Cc1cc(CN2C(=O)COc3cc(CCCOC[C@@H]4CCCN4C)ccc32)no1: 8.05
COc1cc(C2SCC(=O)N2Cc2ccccc2)ccc1O (configuration not stated): 4.66
Cc1cc(CN2C(=O)COc3ccccc32)no1: 5.54

Lab note: COc1cc(C2SCC(=O)N2Cc2ccccn2)ccc1O (configuration not stated) gave pIC50 of 6.57

Lab note: CCOC(=O)CN1C(=O)COc2ccccc21 gave pIC50 of 4.92

Lab note: Cc1nc(CN2C(=O)COc3ccccc32)no1 gave pIC50 of 5.15

* * *

IC50 values by entry
- System: Trypanosoma brucei brucei
- assay text: Antitrypanosomal activity against bloodstream Trypanosoma brucei brucei s427 assessed as reduction in parasite growth measured after 72 hrs by inverted microscope based analysis
- Type: functional, organism-based
- run conditions: s427, 72 h
Give your result in µM as a bare value.

Cc1onc(-c2ccccc2)c1CNS(=O)(=O)c1cnn(-c2ccccc2)c1C: 45
Cc1ccc(S(=O)(=O)Nc2ccccc2Sc2ncnc3c(C)csc23)cc1: 9.36
Cc1nn(C)c(Cl)c1S(=O)(=O)Nc1ccc(Oc2ccc(F)cc2)cc1: 11.8

Lab note: CCOC(=O)c1c(C)nn(-c2ccc(NS(=O)(=O)c3ccc(OC)cc3)cc2)c1C gave IC50 of 2.91

Lab note: COc1ccc(Br)c(-c2nnc(-c3ccccc3NS(=O)(=O)c3ccc(Cl)cc3)o2)c1 gave IC50 of 14.7

* * *

- System: Leishmania donovani
- assay text: Antileishmanial activity against Leishmania donovani MHOM/ET/67/HU3 axenic amastigotes
- Type: functional, organism-based
EC50 values by entry
Give your result in µM as a bare value.

Cc1nn(C)c(C)c1N(C(F)F)S(=O)(=O)c1c(Cl)cc(CCCC2CCN(C)CC2)cc1Cl: 2.4

Recorded EC50 for Cc1nn(C)c(C)c1N(C)S(=O)(=O)c1c(Cl)cc(CCCC2CCN(C)CC2)cc1Cl on Leishmania donovani was 7.1

* * *

pEC50 values by entry
- Tested on: Trypanosoma cruzi
- assay text: Antiprotozoal activity against Trypanosoma cruzi amastigotes measured after 24 hrs
- Type: functional, organism-based
Entry type: numeric. Quantity: pEC50, the -log10 of concentration in molar units.

Solved cases (2 shown):
Cc1nn(C)c(C)c1N(C(F)F)S(=O)(=O)c1c(Cl)cc(-c2ccc(CCCCC3CCN(C)CC3)cc2)cc1Cl: 7.70
Cc1nn(C)c(C)c1N(C(F)F)S(=O)(=O)c1c(Cl)cc(-c2ccc(CCCC3CCN(C)CC3)cc2)cc1Cl: 7.22

Here is the next item to consider.
Recorded pEC50 for Cc1c(NS(=O)(=O)c2c(Cl)cc(-c3ccnc(N4CCNCC4)c3)cc2Cl)c(CC(C)C)nn1C on Trypanosoma cruzi was 5.74

* * *

- System: Plasmodium falciparum
- assay text: Antiplasmodial activity against trophozoite stage Plasmodium falciparum 3D7 assessed as inhibition of plasmodial growth measured after 48 hrs by flow cytometry analysis
- Format: functional, organism-based
- run conditions: 3D7, 48 h
IC50 values by entry

Solved cases (2 shown):
O=[N+]([O-])c1ccc(S(=O)(=O)N2CCC(O[C@@H](c3ccc(Cl)cc3)c3ccccn3)CC2)cc1: 3270 nM
O=S(=O)(c1cc(Cl)ccc1Cl)N1CCC(O[C@H](c2ccc(Cl)cc2)c2ccccn2)CC1: 2170 nM

Lab note: O=S(=O)(c1cc(Cl)ccc1Cl)N1CCC(O[C@@H](c2ccc(Cl)cc2)c2ccccn2)CC1 gave IC50 of 2910 nM

* * *

- System: Leishmania donovani
- assay text: Antileishmanial activity against Leishmania donovani promastigotes
- Format: functional, organism-based
value type: EC50 (µM)
Give your result in µM as a bare value.

Recorded EC50 for Cc1nn(C)c(C)c1NS(=O)(=O)c1c(Cl)cc(-c2ccnc(N3CCNCC3)c2)cc1Cl on Leishmania donovani was 23

* * *

- assay text: Binding affinity to Leishmania donovani NMT assessed as apparent inhibition constant
- run conditions: read-out: Ki(app)
pKi values by entry
Entry type: numeric. Quantity: pKi, the -log10 of concentration in molar units.

Cc1nn(C)c(C)c1NS(=O)(=O)c1c(Cl)cc(-c2ccnc(N3CCN(C)CC3)c2)cc1Cl: 8.20

Here is the next item to consider.
Lab note: Cc1nn(C)c(C)c1NS(=O)(=O)c1c(Cl)cc(-c2ccnc(N3CCNCC3)c2)cc1Cl gave pKi of 8.60

* * *

- Tested on: Leishmania amazonensis
- assay text: Antileishmanial activity against Leishmania amazonensis IFLA/BR/1967/PH8 promastigote
- Format: functional, organism-based
value type: IC50 (µM)
Give your result in µM as a bare value.

Solved cases (4 shown):
O=C(C[Se]C(=O)c1ccc(Cl)cc1)Nc1ccc(Cl)cc1: 9.12
COc1ccc(NC(=O)C[Se]C(=O)c2ccccc2)cc1: 8.71
O=C(C[Se]C(=O)c1ccccc1)Nc1ccc(Cl)cc1: 7.08
O=C(C[Se]C(=O)c1ccccc1)Nc1ccc(Br)cc1: 5.5

Lab note: CCc1ccc(NC(=O)C[Se]C(=O)c2ccc(Cl)cc2)cc1 gave IC50 of 7.41
